Assay: Solvent scope of N,N′-dialkylaldaramides (1%) or N,N′-dialkylpentaramides (1%): gelation/solubility behaviour in solvents
Type: physicochemical
Design: key: g = gelation; s = soluble; p = precipitates; c = crystallizes; ns = not soluble; v = viscous; g* = unstable gel, precipitates; cg = crystalline gel
Conditions: 1% gelling agent; Cyclohexane
reported metric: Gelation/solubility behaviour in Cyclohexane

Illustrative cases are given below, each with its answer.
O=C(NC1CCCCC1)[C@@H](O)[C@@H](O)[C@H](O)[C@@H](O)C(=O)NC1CCCCCCCCCCC1 :: p
O=C(NC1CCCCCCCCCCC1)[C@@H](O)[C@@H](O)[C@H](O)[C@H](O)C(=O)NC1CCCCCCCCCCC1 [Example 16, dicyclododecyl D-mannaramide] :: ns
CCCCCCCC/C=C\CCCCCCCCNC(=O)[C@@H](O)[C@@H](O)[C@H](O)[C@@H](O)C(=O)NCCCCCCCC/C=C\CCCCCCCC [Example 19, dioleyl D-glucaramide] :: p
CC(C)=CCCC(C)CCNC(=O)[C@@H](O)[C@@H](O)[C@H](O)[C@@H](O)C(=O)NCCC(C)CCC=C(C)C (stereo partly drawn) [Example 11, dicitronellyl D-glucaramide] :: g*
CCCCCCCCCCCCNC(=O)[C@@H](O)[C@@H](O)[C@H](OC)[C@@H](O)C(=O)NCCCCCCCCCCCC [Example 21, 3-O-methyl-didodecyl D-glucaramide] :: g

Measured Gelation/solubility behaviour in Cyclohexane of CCCCCCCCCCCCNC(=O)[C@@H](O)[C@@H](O)[C@H](O)[C@@H](O)C(=O)NCCCCCCCCCCCC [Example 12, didodecyl D-glucaramide] : ns

Measured Gelation/solubility behaviour in Cyclohexane of CO[C@@H]([C@H](O)[C@H](O)C(=O)NC1CCCCC1)[C@@H](O)C(=O)NC1CCCCC1 [Example 20, 3-O-methyl-dicyclohexyl D-glucaramide] : ns

* * *

Assay: Solvent scope of N,N′-dialkylaldaramides (1%) or N,N′-dialkylpentaramides (1%): gelation/solubility behaviour in solvents
Type: physicochemical
Set-up: key: g = gelation; s = soluble; p = precipitates; c = crystallizes; ns = not soluble; v = viscous; g* = unstable gel, precipitates; cg = crystalline gel
Conditions: 1% gelling agent; Hexadecane
reported metric: Gelation/solubility behaviour in Hexadecane

Illustrative cases are given below, each with its answer.
CCCCCCCCCCCCNC(=O)[C@@H](O)[C@H](O)[C@H](O)[C@@H](O)C(=O)NCCCCCCCCCCCC [Example 14, didodecyl galactaramide] :: ns
O=C(NC1CCCCCCCCCCC1)[C@@H](O)[C@@H](O)[C@H](O)[C@H](O)C(=O)NC1CCCCCCCCCCC1 [Example 16, dicyclododecyl D-mannaramide] :: ns
CCCCCCCCNC(=O)[C@@H](O)[C@@H](O)[C@H](O)[C@@H](O)C(=O)NCCCCCCCC [Example 8, dioctyl D-glucaramide] :: ns
CC(C)=CCCC(C)CCNC(=O)[C@@H](O)[C@@H](O)[C@H](O)[C@@H](O)C(=O)NCCC(C)CCC=C(C)C (stereo partly drawn) [Example 11, dicitronellyl D-glucaramide] :: p
CCCCCCCCNC(=O)[C@@H](O)[C@H](O)[C@H](O)[C@@H](O)C(=O)NCCCCCCCC [Example 10, dioctyl galactaramide] :: ns
CCCCNC(=O)[C@@H](O)[C@@H](O)[C@H](O)[C@H](O)C(=O)NCCCC [Example 2, dibutyl D-mannaramide] :: Ns
CCCCNC(=O)[C@@H](O)[C@H](O)[C@H](O)[C@@H](O)C(=O)NCCCC [Example 3, dibutyl galactaramide] :: ns
O=C(NC1CCCCCCCCCCC1)[C@@H](O)[C@H](O)[C@H](O)[C@@H](O)C(=O)NC1CCCCCCCCCCC1 [Example 17, dicyclododecyl galactaramide] :: ns

Measured Gelation/solubility behaviour in Hexadecane of CO[C@@H]([C@H](O)[C@H](O)C(=O)NC1CCCCCCCCCCC1)[C@@H](O)C(=O)NC1CCCCCCCCCCC1 [Example 22, 3-O-methyl-dicyclododecyl D-glucaramide] : ns

Measured Gelation/solubility behaviour in Hexadecane of CCCCCCCCCCCCNC(=O)[C@@H](O)[C@@H](O)[C@H](O)[C@@H](O)C(=O)NCCCCCCCCCCCC [Example 12, didodecyl D-glucaramide] : ns

Data credit: patent US6930203B2
